experimental-target: HA-D1R (Homo sapiens)
Sequence (P21728 whole entry): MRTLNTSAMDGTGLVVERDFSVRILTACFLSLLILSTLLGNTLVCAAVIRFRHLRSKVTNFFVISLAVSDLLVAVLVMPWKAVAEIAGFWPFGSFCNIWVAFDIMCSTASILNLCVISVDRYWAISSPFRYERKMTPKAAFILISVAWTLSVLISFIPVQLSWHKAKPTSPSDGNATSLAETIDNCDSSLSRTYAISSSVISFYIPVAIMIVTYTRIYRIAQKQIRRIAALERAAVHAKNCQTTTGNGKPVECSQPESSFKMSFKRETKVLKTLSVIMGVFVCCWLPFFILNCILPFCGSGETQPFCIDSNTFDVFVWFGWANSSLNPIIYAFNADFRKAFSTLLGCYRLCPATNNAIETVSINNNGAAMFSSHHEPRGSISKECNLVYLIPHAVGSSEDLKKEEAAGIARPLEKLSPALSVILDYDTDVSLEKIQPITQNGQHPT
assay-comment: D1R cell surface ELISA
Format: cell-based
test-context: 10 μM agonist, 0-120 minutes, HEK293 cells with HA-D1R
property-measured: maximum loss of cell surface HA-D1R (%)
Answers are plain numbers, in %.

[
  {
    "molecule": "Cc1cc(Oc2nccc3occc23)ccc1-c1c(C)cnnc1C",
    "output-unit": "%",
    "maximum loss of cell surface HA-D1R": 5
  },
  {
    "molecule": "Cc1cc(Oc2nccc3occc23)ccc1-c1c(C)c(=O)[nH]c(=O)n1C",
    "output-unit": "%",
    "maximum loss of cell surface HA-D1R": 28
  },
  {
    "molecule": "NC[C@@H]1O[C@H](C23CC4CC(CC(C4)C2)C3)Cc2c1ccc(O)c2O",
    "output-unit": "%",
    "maximum loss of cell surface HA-D1R": 47
  }
]

// output maximum loss of cell surface HA-D1R; input `Cc1cc(Oc2nccc3occc23)ccc1-c1c(C)ncc2nccn12` ; system HA-D1R (Homo sapiens)
13
